- PROCEDURE DETAILS: NCI Yeast Anticancer Drug Screen. Data for the mec2-1 strain (AID 157)
- TEST CONDITIONS: S. cerevisiae mec2-1 strain, at 50.0 µM, active compounds read high
About 79,000 compounds went through this panel and 15% of them were active in at least one assay; those are over-represented in the sample as a whole.
Each entry below carries its recorded growth inhibition.
Give a bare numeral; the unit % is implied.

Can you share its growth inhibition? I mean this compound: COc1ccc2c3c1OC1C(C)(O)C(O)CC4C(C2)N(C)CCC341 (stereo not drawn)
-4.95

Consider the compound shown here: `CC(Br)([N+](=O)[O-])[N+](=O)[O-]` What is its recorded growth inhibition?
25.8

Need growth inhibition of `C=CCCOC(=O)CO[N+](=O)[O-]` , thanks.
-0.7

Request the reported growth inhibition associated with `Cc1ccc(Cl)c([N+](=O)[O-])c1`
-52.5

Returns the measured growth inhibition for the input compound. Input: `Cc1cnc2ncn(Cc3c[nH]c(=O)[nH]c3=O)c(=O)c2c1`
5.55

====

growth inhibition for assorted compounds
- PROCEDURE DETAILS: NCI Yeast Anticancer Drug Screen. Data for the mec2-1 strain (AID 157)
- TEST CONDITIONS: S. cerevisiae mec2-1 strain, at 50.0 µM, active compounds read high
Compounds without any hit were thinned out: in the full panel of roughly 79,000, 15% have a hit. Activity calls are given as the source filed them. No stated cut-off is given here; in the data, active means growth inhibition above about 70%; inactive means the rest.

Please review the entries below; each comes with its answer.
COMPOUND: COP(=O)(NC(=O)OC(C)C)OC
EXPERIMENTAL READOUT: growth inhibition
REPORTED: -21.2% (inactive)
//
COMPOUND: CCCN(CCC)C(=O)CCl
EXPERIMENTAL READOUT: growth inhibition
REPORTED: 5.2% (inactive)
//
COMPOUND: CC(NC1=NCCO1)c1cccs1 (stereo not given)
EXPERIMENTAL READOUT: growth inhibition
REPORTED: -2.15% (inactive)
//
COMPOUND: Cc1nnc2n1-c1ccc(Cl)cc1C(c1ccccc1)=[N+]([O-])C2
EXPERIMENTAL READOUT: growth inhibition
REPORTED: -0.7% (inactive)
//
COMPOUND: Nc1c(S(=O)(=O)O)cc(Nc2ccc(S(=O)(=O)O)c(Nc3nc(Cl)nc(Cl)n3)c2)c2c1C(=O)c1ccccc1C2=O
EXPERIMENTAL READOUT: growth inhibition
REPORTED: -31.8% (inactive)

Name the recorded growth inhibition for `Nc1ccc(C(=O)O)c(C(=O)O)c1` .
-6.8% (inactive)

growth inhibition for CN1CCN(Cc2ccccc2)CC1CC#N (stereo not given) ?
-34.8% (inactive)

For the compound `CC1(C)N=C(N)N=C(N)N1c1ccc(CCCCc2ccc(S(=O)(=O)F)c(Cl)c2)c(Cl)c1` , what growth inhibition is on record?
99.5% (active)

# input compound: CC(C)CCCC(C)CO[P+](=O)OCC(C)CCCC(C)C (stereo not given) ; wanted: its growth inhibition
7.4% (inactive)

For the compound shown here, `CN(C)C(=O)Oc1c(Cl)cc(S(=O)(=O)F)cc1Cl` , give the reported growth inhibition.
0.8% (inactive)

Query: growth inhibition; subject: `OC/C=C\c1ccc2c(c1)OCO2`
14.2% (inactive)

====

- PROCEDURE DETAILS: NCI Yeast Anticancer Drug Screen. Data for the sgs1 mgt1 strain (AID 161);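 also: 0% = growth of cultures given vehicle only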
- TEST CONDITIONS: S. cerevisiae sgs1 mgt1 strain, at 50.0 µM, active compounds read high
- Procedure: Growth inhibition of yeast strains with defined genetic alterations is measured as a screen for potential anti-cancer activity. Selected strains with alterations in DNA damage repair or cell cycle control were exposed to compounds and growth inhibition was measured relative to vehicle treated controls. The strain used in this assay is sgs1 mgt1
Compounds without any hit were thinned out: in the full panel of roughly 79,000, 15% have a hit.
Each record here notes measured growth inhibition.
// return numeric value only (unit: %, not printed)

For orientation, consider the following solved cases.
MOLECULE: [CH3][Sn]([c]1ccccc1)[c]1ccccc1
EXPERIMENTAL READOUT: growth inhibition
REPORTED: 2.45
//
MOLECULE: COC(C)CCOC(=O)Cc1ccccc1 (stereo not given)
EXPERIMENTAL READOUT: growth inhibition
REPORTED: -0.15
//
MOLECULE: CC1(CO)C(O)CCC2(C)C1CCC1CC3CC12CCC3(O)CO (stereo not given)
EXPERIMENTAL READOUT: growth inhibition
REPORTED: 19.1

Looking for the measured growth inhibition of `CCOP(=S)(OCC)OP(=O)(CC)CC` , can you help?
-1.7

Any idea what its growth inhibition is? The molecule is `Cc1ccc(OP(=O)(Oc2ccc(C)c(C)c2)Oc2ccc(C)c(C)c2)cc1C`
-9.15

growth inhibition lookup needed for `Cc1cc(CCN)c(C)c2c1oc1ccccc12` , thanks.
98.8

====

- PROCEDURE DETAILS: NCI Yeast Anticancer Drug Screen. Data for the bub3 strain (AID 167)
- TEST CONDITIONS: S. cerevisiae bub3 mutant strain, at 50.0 µM, active compounds read high
About 79,000 compounds went through this panel and 15% of them were active in at least one assay; those are over-represented in the sample as a whole. The source made the active and inactive calls. Cut-off read from the data, not from the text of the source: active = growth inhibition above about 70%; inactive = the rest.
EXPERIMENTAL READOUT: growth inhibition

// below: answered compounds
COMPOUND: CC1=C(N2CC2)C(=O)c2nc3n(c2C1=O)CCC3OC(=O)CCl (configuration not stated)
EXPERIMENTAL READOUT: growth inhibition
REPORTED: 6% (inactive)
--
COMPOUND: CC1(C)[C@@H]2CC[C@]1(C)[C@H](OC(=O)C(Cl)(Cl)Cl)C2
EXPERIMENTAL READOUT: growth inhibition
REPORTED: 26.8% (inactive)
--
COMPOUND: COc1ccc2c(ccc3oc([N+](=O)[O-])cc32)c1
EXPERIMENTAL READOUT: growth inhibition
REPORTED: 68% (inactive)
--
COMPOUND: CCCCCCCC(=O)O.[Pb]
EXPERIMENTAL READOUT: growth inhibition
REPORTED: -6% (inactive)

Bench note: what growth inhibition did `COC1(O[C@H]2CC[C@H]3[C@@H]4CCC5=CC(=O)CC[C@]5(C)[C@H]4CC[C@]23C)CCCCC1` show?
99.1% (active)

Would you mind telling me what growth inhibition value was observed for `N#CC1(c2ccccc2)CCCC1` ?
-4.05% (inactive)

GET /values?readout=growth inhibition&item= `ClCCOCOCCCl`
-6.15% (inactive)

====

- PROCEDURE DETAILS: NCI Yeast Anticancer Drug Screen. Data for the mlh1 rad18 strain (AID 175)
- TEST CONDITIONS: S. cerevisiae mlh1 rad18 strain growth inhibition; at 50.0 µM
The panel holds about 79,000 compounds, 15% with a hit somewhere; the sample as a whole holds those more often. Activity calls are given as the source filed them. No stated cut-off is given here; in the data, active means growth inhibition above about 70%; inactive means the rest.
Your response should consist of one outcome taken from class 1 for active, class 0 for inactive

Past entries and their recorded results:
COMPOUND: Cc1cc(N(CCCl)CCCl)ccc1C1N(Cc2ccc(N(CCCl)CCCl)cc2Cl)CCCN1Cc1ccc(N(CCCl)CCCl)cc1Cl
GROUP: class 1
//
COMPOUND: CC[n+]1c(C)n(-c2ccccc2)c(=O)c2ccccc21
GROUP: class 0
//
COMPOUND: CC[CH2][Pb]([CH2]CC)([CH2]CC)[O]C(C)=O
GROUP: class 1
//
COMPOUND: CC(NCCO)C(O)c1ccccc1 (configuration not stated)
GROUP: class 0
//
COMPOUND: COc1ccc(C2=CC3=CCC4C(CCC5(C)C(O)CCC45)C3(C)CC2)s1 (configuration not stated)
GROUP: class 0
//
COMPOUND: Oc1cc(Br)c(O)c(Br)c1
GROUP: class 0

Now let's try a different one.
Could you check what this test reported for `COc1ccc(/C=C\[N+](=O)[O-])cc1OC` ?
class 1

====

- PROCEDURE DETAILS: NCI Yeast Anticancer Drug Screen. Data for the mlh1 rad18 strain (AID 175)
- TEST CONDITIONS: S. cerevisiae mlh1 rad18 strain growth inhibition; at 50.0 µM (retest, dose inferred, filed as 5.0)
Compounds without any hit were thinned out: in the full panel of roughly 79,000, 15% have a hit. Active and inactive are the calls of the source. Rule as the data show it: active = growth inhibition above about 70%; inactive = the rest.
Respond with a class label; see active, inactive

# example entries with known answers
COMPOUND: CCOC(=O)C1C(O)=C(P(=O)(C2=C(O)C(C(=O)OCC)C(c3ccc(OC(C)=O)cc3)C(C(=O)O)C2=O)N(CCCl)CCCl)C(=O)C(C(=O)O)C1c1ccc(OC(C)=O)cc1 (stereo unspecified)
GROUP: active
//
COMPOUND: C1CN1[PH+](N1CC1)N1CC1.C1CN1[PH+](N1CC1)N1CC1.[I][Pt][I]
GROUP: inactive
//
COMPOUND: OC1C2[C@@H](O)CCCN2C[C@@H](O)[C@H]1O (stereo partly specified)
GROUP: inactive
//
COMPOUND: NNc1ccccc1
GROUP: active
//
COMPOUND: O=C(OCCl)c1ccccc1
GROUP: inactive
//
COMPOUND: O=C1C(F)=C(N2CC2)C(=O)C(N2CCOCC2)=C1N1CC1
GROUP: active
//
COMPOUND: Nc1ccc([As]=[As]c2ccc(N)cc2)cc1 (stereo unspecified)
GROUP: active
//
COMPOUND: COc1ccc([As]=[As]c2ccc(OC)c(I)c2)cc1I (stereo unspecified)
GROUP: active

Which result was noted for this compound in the test: `O=NNc1c[nH]c(=O)[nH]c1=O`
inactive

Entry `CC(=O)[O][Hg][c]1c(C)c(C)cc(C)c1C` : call = ?
active

Outcome? `COC(=O)[C@]1(C)CCC[C@]2(C)[C@H]3CC4OO[C@@]3(CC[C@H]21)[C@H]1O[C@@]41C(C)C`
active

Any idea what this test logged for `COc1cc(/C=C(/C)[N+](=O)[O-])c([N+](=O)[O-])cc1OC` ?
inactive

Please indicate how the test categorized `[Pt].c1ccc([PH+](c2ccccc2)c2ccccc2)cc1.c1ccc([PH+](c2ccccc2)c2ccccc2)cc1.c1ccc([PH+](c2ccccc2)c2ccccc2)cc1.c1ccc([PH+](c2ccccc2)c2ccccc2)cc1` .
active

Assay result, entry `O=C(CC(=O)c1ccccc1)c1ccccc1.O=C(CC(=O)c1ccccc1)c1ccccc1.O=C(CC(=O)c1ccccc1)c1ccccc1.[Al]` — outcome?
inactive

Short answer needed: outcome of this test for `O=C(O)CN1CCN(CC(=O)O)CC(=O)[O][Hg][O]C(=O)C1` ?
active
